# System: U251 CNS
# METHOD: NCI tumour cell line growth inhibition, 48 h
Measured TGI accompanies every entry in the list below.
MEASUREMENT LABEL: TGI (µM)

>>> quantitative_readout("Cc1ccc(C(=O)Nc2ccc(CN3CCN(C)CC3)c(C(F)(F)F)c2)cc1C#Cc1cnc(N)cc1C#N")
0.997
>>> quantitative_readout("CC[C@]1(O)CC2CN(CCc3c([nH]c4ccccc34)[C@@](C(=O)OC)(c3cc4c(cc3OC)N(C)[C@H]3[C@@](O)(C(=O)OC)[C@H](OC(C)=O)[C@]5(CC)C=CCN6CC[C@]43[C@@H]65)C2)C1 (stereo partly drawn)")
6.5
>>> quantitative_readout("CN1CCCC(OC(=O)c2cc3cc(CCl)ccc3oc2=O)C1 (stereo not drawn)")
30.1
>>> quantitative_readout("Cc1ccc(C2(N3CCOCC3)OC(C)(C)c3cccc4cccc2c34)cc1 (stereo not drawn)")
30.7

###

# Tested on: ACHN renal
# METHOD: NCI tumour cell line growth inhibition, 48 h
Listed here are molecules together with their documented TGI.
MEASUREMENT LABEL: TGI (µM)

>>> quantitative_readout("CCCCNC(=S)Nc1nc(C(=O)NNC(=S)NCc2ccccc2)cs1")
78.5
>>> quantitative_readout("O=C1c2c(O)cccc2Cc2cccc(O)c21")
1.1
>>> quantitative_readout("O=Cc1c(-c2cc(O)ccc2O)nc2sccn12")
22.6
>>> quantitative_readout("c1cc2c3c(c1)[C@@H]1O[C@@H]1c1cccc(c1-3)[C@@H]1O[C@H]21")
43
>>> quantitative_readout("Nc1ccccc1C#C/C=C\\C#Cc1ccccc1C(F)(F)F")
15.8

###

Parameter TGI: see the listing below.
# Tested on: UO-31 renal
# METHOD: NCI tumour cell line growth inhibition, 48 h
MEASUREMENT LABEL: TGI

>>> result("COC(=O)C1=C(C)N(NC(N)=O)C2(N)N(NC(N)=O)C(C)=C(C(=O)OC)C12C(=O)OC (stereo not given)")
"> 100 µM"
>>> result("O=C1NC(=S)N/C1=C\\c1ccc(Sc2ccccc2C(=O)O)s1")
"> 100 µM"
>>> result("Cc1c(Cl)c(=O)oc2cc(OCC(O)COC(C)C)ccc12 (stereo not given)")
"> 100 µM"
>>> result("CC(=O)OCC1(CNc2nc(N)ncc2C#N)CC(CCc2ccccc2)C1 (stereo not given)")
"> 100 µM"
>>> result("O=Cc1c(-c2cc(O)ccc2O)nc2sccn12")
"2.38 µM"
>>> result("COc1ccc(C(=O)/C=C/c2ccc(OCCCOc3ccc(/C=C/C(=O)c4ccc(OC)c(OC)c4)cc3)cc2)cc1OC")
"> 100 µM"
>>> result("C/C(=N\\NC(=O)c1ccncc1)c1cccc(C(F)(F)F)c1")
"> 10 µM"
>>> result("CC1OC(n2ncc(=O)[nH]c2=O)C=CC1=O (stereo not given)")
"> 100 µM"
>>> result("COc1ccc2c3c([nH]c2c1)-c1nc2ccccc2c(=O)n1CC3")
"> 25 µM"
>>> result("COC(C[C@H]1CCCC[C@]1(O)/C(=C\\CO[Si](C(C)C)(C(C)C)C(C)C)Sc1ccccc1)OC")
"> 100 µM"

###

# Tested on: NCI-H23 lung
# METHOD: NCI tumour cell line growth inhibition, 48 h
Item-by-item account of TGI
MEASUREMENT LABEL: TGI

>>> result("O=C(NCCNCCO)N/N=C/c1ccccc1")
"> 100 µM"
>>> result("O=C1Sc2cc3ccccc3cc2C(=O)Sc2cc3ccccc3cc21")
"> 100 µM"
>>> result("CC[C@]1(O)CC2CN(CCc3c([nH]c4ccccc34)[C@@](C(=O)OC)(c3cc4c(cc3OC)N(C)[C@H]3[C@@](O)(C(=O)OC)[C@H](OC(C)=O)[C@]5(CC)C=CCN6CC[C@]43[C@@H]65)C2)C1 (stereo partly drawn)")
"26.7 µM"
>>> result("COc1ccccc1-[n+]1cc(-c2ccc(-c3ccccc3)cc2)n2c1CCCCC2")
"10.1 µM"
>>> result("O=c1cnc2cc3ccccc3cc2[nH]1")
"> 100 µM"
>>> result("Cn1c(=O)[nH]n(-c2ccc3ccccc3c2)c1=O")
"> 100 µM"
>>> result("CCn1c(O)c(C(=O)NC(C)c2ccc([N+](=O)[O-])cc2)c(=O)n(CC)c1=S (stereo not drawn)")
"4.63 µM"
>>> result("OCC1c2ccccc2-n2nc(-c3ccccc3)c(O)c21 (stereo not drawn)")
"> 100 µM"

###

Measured TGI values are reported for all entries that follow.
# Test system: SF-268 CNS
# METHOD: NCI tumour cell line growth inhibition, 48 h
MEASUREMENT LABEL: TGI

>>> result("CC1=C(/C=C/C(C)=C\\C=C\\C(C)=C\\C(=O)Nc2ccc3c(c2)OCO3)C(C)(C)CCC1")
"> 100 µM"
>>> result("Cn1c(=O)[nH]n(-c2ccc3ccccc3c2)c1=O")
"> 100 µM"
>>> result("CC(=O)c1cc(S(=O)(=O)c2ccc(O)c(C(C)=O)c2)ccc1O")
"> 100 µM"
>>> result("C#Cc1cccc(Nc2ncnc3cc(OCCOC)c(OCCOC)cc23)c1")
"> 100 µM"
>>> result("CCCCCCCCCCC[N+]1(Cc2ccccc2)CC2CCN(Cc3ccccc3)CC2C1 (stereo not given)")
"2.13 µM"

###

# System: HCT-116 colon
# METHOD: NCI tumour cell line growth inhibition, 48 h
MEASUREMENT LABEL: TGI

>>> result("CCN(Cc1cccc(OC)c1)c1ccc(CO)c(Cl)c1")
"11.2 µM"
>>> result("Oc1ccc(Cc2ccc(O)c3ncccc23)c2cccnc12")
"> 100 µM"
>>> result("Cc1ccc(S(=O)(=O)CC2CCCn3c2c(C#N)c2ccccc23)cc1 (stereo not drawn)")
"> 100 µM"
>>> result("CC(=O)CCCCCCCCCCCC[C@@H]1CC[C@H](C)[C@H](O)N1")
"> 100 µM"
>>> result("C=C1CN=C(Nc2ccc(F)cc2F)S1")
"> 100 µM"
>>> result("Nc1ccc2c(SCCSc3c4ccccc4nc4cc(N)ccc34)c3ccccc3nc2c1")
"> 100 µM"
>>> result("CC(=O)OCC1(CNc2nc(N)ncc2C#N)CC(CCc2ccccc2)C1 (stereo not drawn)")
"> 100 µM"
>>> result("COC(=O)C1=C(C)N(NC(N)=O)C2(N)N(NC(N)=O)C(C)=C(C(=O)OC)C12C(=O)OC (stereo not drawn)")
"> 100 µM"
>>> result("CC[C@]1(O)CC2CN(CCc3c([nH]c4ccccc34)[C@@](C(=O)OC)(c3cc4c(cc3OC)N(C)[C@H]3[C@@](O)(C(=O)OC)[C@H](OC(C)=O)[C@]5(CC)C=CCN6CC[C@]43[C@@H]65)C2)C1 (stereo partly drawn)")
"0.269 µM"
>>> result("CC(=O)Nc1ccc(/C=C/[N+](=O)[O-])cc1")
"6.07 µM"
>>> result("CCOC(=O)c1c(SCCN2CCCCC2)n(-c2ccccc2)c(=S)n(-c2ccccc2)c1=O")
"4.89 µM"
>>> result("O=C(O)c1cc2ccccc2c(O)c1O")
"30.7 µM"
>>> result("COC(=O)NC(Nc1ccc(C)cc1)(C(F)(F)F)C(F)(F)F")
"> 100 µM"

###

# System: LOX IMVI melanoma
# METHOD: NCI tumour cell line growth inhibition, 48 h; in the data active = GI50 below about 0.43 µM; inactive = the rest
Outcomes: TRUE for active, FALSE for inactive

>>> class_assignment("CC(CN(CP(=O)([O-])[O-])CP(=O)([O-])[O-])N(CP(=O)([O-])[O-])CP(=O)([O-])[O-].N.N.[Pt+2] (stereo not given)")
"FALSE"
>>> class_assignment("CCN(CC)c1ccc(/C=C\\c2cc(C)c3cc(C)ccc3n2)cc1")
"FALSE"
>>> class_assignment("N[C@@H](Cc1c[nH]c2ccccc12)C(=O)NC1CCN(C(=O)c2c[nH]c3ccccc23)CC1")
"FALSE"
>>> class_assignment("Oc1ccc(Cc2ccc(O)c3ncccc23)c2cccnc12")
"TRUE"
>>> class_assignment("COc1ccc(-n2c(SCc3cc(OC)c(OC)c(OC)c3)nc3ccc(C)cc3c2=O)c(OC)c1")
"FALSE"

###

TGI by entry:
# Tested on: HOP-92 NSCLC
# METHOD: NCI tumour cell line growth inhibition, 48 h
MEASUREMENT LABEL: TGI

>>> result("Cn1cnc(/C=C/C#N)c1")
"> 100 µM"
>>> result("Cc1c(Cl)c(=O)oc2cc(OCC(O)COC(C)C)ccc12 (stereo unspecified)")
"> 100 µM"
>>> result("Cc1c(N=Nc2ccc([N+](=O)[O-])cc2)nc2scc(-c3ccccc3)n12")
"> 100 µM"
>>> result("COc1cccc(OC/C(N=Cc2ccncc2)=N/NC(=O)c2ccncc2)c1")
"> 100 µM"
>>> result("O=C1Sc2cc3ccccc3cc2C(=O)Sc2cc3ccccc3cc21")
"> 87.6 µM"
>>> result("COC(=O)C1CC(C(=O)OC)c2nc3cc(C)ccc3nc21 (stereo unspecified)")
"> 100 µM"
